Target under test: human cGAS (residues 161-522) (Homo sapiens, UniProt Q8N884)
Construct: human cGAS (residues 161-522)
Sequence (Q8N884 161-522): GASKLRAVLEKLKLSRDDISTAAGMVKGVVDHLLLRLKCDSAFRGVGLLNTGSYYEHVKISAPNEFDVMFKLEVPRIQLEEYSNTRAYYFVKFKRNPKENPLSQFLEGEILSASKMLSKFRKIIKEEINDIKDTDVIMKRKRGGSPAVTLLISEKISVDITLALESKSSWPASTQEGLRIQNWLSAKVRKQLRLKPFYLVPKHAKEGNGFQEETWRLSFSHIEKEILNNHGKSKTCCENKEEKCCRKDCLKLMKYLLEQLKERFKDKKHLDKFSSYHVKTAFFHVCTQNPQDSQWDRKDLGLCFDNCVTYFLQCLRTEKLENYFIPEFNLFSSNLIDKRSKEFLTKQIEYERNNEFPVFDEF
Assay summary: cGAS Activity Assay—Malachite Green
Assay setup: recombinant purified human cGAS 25 nM; 80 μM ATP, 80 μM GTP, 100 nM ISD; 4 hour at RT; phosphate detection by Malachite Green
The reader will find reported IC50 values listed item by item below.
Property: IC50 (nM)

> print(dat)
                           molecular.string  obs.value
1  Cc1cc(NC(=O)/C(C#N)=C(\O)c2cnoc2C)ccc1Br       1810
2  Cc1oncc1/C(O)=C(\C#N)C(=O)Nc1ccc(C(=O)Nc2ccccc2)cc1        420
3  Cc1noc(C)c1N(C(=O)c1cnoc1C)S(=O)(=O)c1ccc(NC(=O)/C(C#N)=C(\O)c2cnoc2C)cc1        520
4  Cc1oncc1/C(O)=C(\C#N)C(=O)Nc1cccc(-c2ccccc2)c1       1990

The reported measurements were obtained from patent US20230242494A1.
